# Target Under Test: T1, human IL-23R (human, UniProt Q5VWK5 24-353, limits assumed)
# T1 construct: also called huIL-23R; human interleukin-23R
# T1 sequence: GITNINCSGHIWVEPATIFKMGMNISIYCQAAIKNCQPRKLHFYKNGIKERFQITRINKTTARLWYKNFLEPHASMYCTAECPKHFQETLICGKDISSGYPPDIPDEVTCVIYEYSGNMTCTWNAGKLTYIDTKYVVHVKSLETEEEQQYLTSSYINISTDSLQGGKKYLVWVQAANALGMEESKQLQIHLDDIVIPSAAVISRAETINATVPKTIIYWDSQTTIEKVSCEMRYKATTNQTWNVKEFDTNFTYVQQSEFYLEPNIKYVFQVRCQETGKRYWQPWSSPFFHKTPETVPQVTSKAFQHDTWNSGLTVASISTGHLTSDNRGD
# Assay Notes: BIAcore SPR, antibody immobilised
Endpoint: pKd
Just the number, please; pKd means minus log10 of the concentration in mol/L.

{"Binder": "hu8B10-b variant, VH N57D (antibody, V domains shown, also called VH: 8B10-b N57D / VL: 8B10-b) VH: QVQLVESGGGVVQPGRSLRLSCAASGFDFNSYGMSWVRQAPGKGLDLVADINSKSYDYATYYADSVKDRFTISRDNSKNTLYLQMNSLRAEDTAVYYCAVHHSDYFEYWGQGTLVTVSS VL: DIQMTQSPSSLSASVGDRVTITCRASQDIYTNLAWYQQKPGKAPKLLIYHASSLQDGVPSRFSGSGSGTDYTLTISSLQPEDFATYYCLQDSEYPPTFGQGTKVEIKR", "pKd": 9.66}

Moving on to another binder below.
Qu. What value of measured pKd is listed for humanized anti-human IL-23R antibody hu8B10-b (antibody, V domains shown) VH: QVQLVESGGGVVQPGRSLRLSCAASGFDFNSYGMSWVRQAPGKGLDLVADINSKSYNYATYYADSVKDRFTISRDNSKNTLYLQMNSLRAEDTAVYYCAVHHSDYFEYWGQGTLVTVSS VL: DIQMTQSPSSLSASVGDRVTITCRASQDIYTNLAWYQQKPGKAPKLLIYHASSLQDGVPSRFSGSGSGTDYTLTISSLQPEDFATYYCLQDSEYPPTFGQGTKVEIKR ?
Ans. 9.81
